Target: T1, human CDH6 on tumor cells (OVCAR3 cells, PA-1 cells) (human, UniProt P55285 54-790)
T1 sequence: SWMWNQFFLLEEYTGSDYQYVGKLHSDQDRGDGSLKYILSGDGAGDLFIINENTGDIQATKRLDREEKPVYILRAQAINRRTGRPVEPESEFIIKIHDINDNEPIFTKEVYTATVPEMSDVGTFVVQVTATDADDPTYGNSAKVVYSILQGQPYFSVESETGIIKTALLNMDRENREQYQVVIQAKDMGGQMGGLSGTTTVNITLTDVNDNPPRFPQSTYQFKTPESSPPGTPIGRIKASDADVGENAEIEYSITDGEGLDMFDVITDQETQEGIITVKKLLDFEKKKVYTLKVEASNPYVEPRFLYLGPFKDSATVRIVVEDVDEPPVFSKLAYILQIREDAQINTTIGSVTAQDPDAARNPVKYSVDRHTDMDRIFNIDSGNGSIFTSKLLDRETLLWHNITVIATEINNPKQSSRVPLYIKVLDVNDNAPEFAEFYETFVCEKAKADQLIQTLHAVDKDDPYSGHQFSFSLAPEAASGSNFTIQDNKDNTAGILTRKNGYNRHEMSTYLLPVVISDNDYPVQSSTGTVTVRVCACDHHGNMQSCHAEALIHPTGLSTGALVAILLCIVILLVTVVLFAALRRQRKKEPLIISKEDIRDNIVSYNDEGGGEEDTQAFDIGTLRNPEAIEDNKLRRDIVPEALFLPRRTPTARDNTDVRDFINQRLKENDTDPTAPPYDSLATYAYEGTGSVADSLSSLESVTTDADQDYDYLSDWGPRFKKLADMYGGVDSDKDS
Assay: FACS, OVCAR3 cells
measurement type: EC50 (nM)
Enter your answer as a number in nM; do not include the unit.

input: Quickly give me recorded EC50 for hCDH6-6-H3L2 (antibody, V domains shown, Humanized) VH: EVQLVQSGAEVKKPGASVKVSCKASGYTFTDYYMAWVRQAPRQGLEWMGYIFPNSGGTDYSQKFKGRVTMTVDKSTSTVYMELSSLRSEDTAVYYCARELGADYGDYYAMDHWGQGTTVTVSS VL: DIQMTQSPSSLSASVGDRVTITCRASENIDSYLAWYQQKPGKSPKLLVYSATLLADGVPSRFSGSGSGTDYTLTISSLQPEDFATYYCQHYYRTPPTFGQGTKLEIK
output: 0.85

input: Please supply the value of reported EC50 for the item hCDH6-6-H2L3 (antibody, V domains shown, Humanized) VH: EVQLVQSGAEVKKPGASVKVSCKASGYTFTDYYMAWVRQAPGQGLEWMGYIFPNSGGTDYSQKFKGRVTLTVDKSTSTVYMELSSLRSEDTAVYYCARELGADYGDYYAMDHWGQGTTVTVSS VL: DIQMTQSPSSLSASVGDRVTITCRASENIDSYLAWYQQKPGKSPQLLVYSATLLADGVPSRFSGSGSGTDYTLTISSLQPEDFATYYCQHYYRTPPTFGQGTKLEIK
output: 0.57

input: Provide one value: measured EC50 of hCDH6-6-H1L2 (antibody, V domains shown, Humanized) VH: EVQLVQSGAEVKKPGASVKVSCKASGYTFTDYYMAWVRQAPGQGLEWMGYIFPNSGGTDYSQKFKGRVTMTVDKSTSTVYMELSSLRSEDTAVYYCARELGADYGDYYAMDHWGQGTTVTVSS VL: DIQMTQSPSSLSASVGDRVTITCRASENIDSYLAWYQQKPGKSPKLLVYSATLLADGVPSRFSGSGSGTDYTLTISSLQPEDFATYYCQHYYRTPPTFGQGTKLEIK
output: 0.62

Origin of values: patent US20260234242A1
